Parameter: Ki p110 alpha/ Ki p110 delta. Scope: all listed entries.
Biological target: p110 alpha (Homo sapiens)
Construct: purchased Upstate Group, Millipore; Dundee, UK
Assay: PI3K isoform inhibition assay (fluorescence polarization), p110 alpha
Format: biochemical
Details: delta/alpha selectivity ratio
Write the value as a bare number.

// worked examples, Ki p110 alpha/ Ki p110 delta included
| MOLECULE | MEASURED_VALUE |
| --- | --- |
| CCc1nc2ccccc2n1-c1nc(N2CCOCC2)c2nc(OC3CCN(C(C)=O)CC3)n(C)c2n1 | 81 |
| CCc1nc2ccccc2n1-c1nc(N2CCOCC2)c2nc(OC3CCN(C4CCS(=O)(=O)CC4)CC3)n(C)c2n1 | 73 |
| CCc1nc2ccccc2n1-c1nc(N2CCOCC2)c2nc(OC3CN(C(=O)C(C)(C)F)C3)n(C)c2n1 | 72 |
| CCc1nc2ccccc2n1-c1nc(N2CCOCC2)c2nc(OC3CN(C(=O)C4(C#N)CC4)C3)n(C)c2n1 | 30 |

If you can, please state the reported Ki p110 alpha/ Ki p110 delta value of `CCc1nc2ccccc2n1-c1nc(N2CCOCC2)c2nc(OC3CCN(C4COC4)CC3)n(C)c2n1` .
32.2

Next record, please: `CC(C)C(=O)N1CC(Oc2nc3c(N4CCOCC4)nc(-c4c(F)ccc5[nH]ccc45)nc3n2C)C1`
88

Entry `CC(C)C(=O)N1CC(Oc2nc3c(N4CCOCC4)nc(-n4c(N(C)C)nc5ccccc54)nc3n2C)C1` please
180

What about `CCc1nc2ccccc2n1-c1nc(N2CCOCC2)c2nc(OC3CCNCC3)n(C)c2n1` ?
188

What do we get for `CCc1nc2ccccc2n1-c1nc(N2CCOCC2)c2nc(OC3CN(C4CCS(=O)(=O)CC4)C3)n(C)c2n1` ?
163

Moving on to `Cn1c(OC2CN(C3CCS(=O)(=O)CC3)C2)nc2c(N3CCOCC3)nc(-n3c(C(C)(F)F)nc4ccccc43)nc21`
59

Another molecule to look at: `CCc1nc2ccccc2n1-c1nc(N2CCOCC2)c2nc(OC3CN(C(=O)C(C)C)C3)[nH]c2n1`
141

Item: `CCc1nc2ccccc2n1-c1nc(N2CCOCC2)c2nc(OC3CN(C(=O)[C@H]4CC45CCC5)C3)n(C)c2n1`
107

====

Target: p110 delta (Homo sapiens, UniProt O00329)
Construct: Dundee, UK
Sequence (O00329 whole entry): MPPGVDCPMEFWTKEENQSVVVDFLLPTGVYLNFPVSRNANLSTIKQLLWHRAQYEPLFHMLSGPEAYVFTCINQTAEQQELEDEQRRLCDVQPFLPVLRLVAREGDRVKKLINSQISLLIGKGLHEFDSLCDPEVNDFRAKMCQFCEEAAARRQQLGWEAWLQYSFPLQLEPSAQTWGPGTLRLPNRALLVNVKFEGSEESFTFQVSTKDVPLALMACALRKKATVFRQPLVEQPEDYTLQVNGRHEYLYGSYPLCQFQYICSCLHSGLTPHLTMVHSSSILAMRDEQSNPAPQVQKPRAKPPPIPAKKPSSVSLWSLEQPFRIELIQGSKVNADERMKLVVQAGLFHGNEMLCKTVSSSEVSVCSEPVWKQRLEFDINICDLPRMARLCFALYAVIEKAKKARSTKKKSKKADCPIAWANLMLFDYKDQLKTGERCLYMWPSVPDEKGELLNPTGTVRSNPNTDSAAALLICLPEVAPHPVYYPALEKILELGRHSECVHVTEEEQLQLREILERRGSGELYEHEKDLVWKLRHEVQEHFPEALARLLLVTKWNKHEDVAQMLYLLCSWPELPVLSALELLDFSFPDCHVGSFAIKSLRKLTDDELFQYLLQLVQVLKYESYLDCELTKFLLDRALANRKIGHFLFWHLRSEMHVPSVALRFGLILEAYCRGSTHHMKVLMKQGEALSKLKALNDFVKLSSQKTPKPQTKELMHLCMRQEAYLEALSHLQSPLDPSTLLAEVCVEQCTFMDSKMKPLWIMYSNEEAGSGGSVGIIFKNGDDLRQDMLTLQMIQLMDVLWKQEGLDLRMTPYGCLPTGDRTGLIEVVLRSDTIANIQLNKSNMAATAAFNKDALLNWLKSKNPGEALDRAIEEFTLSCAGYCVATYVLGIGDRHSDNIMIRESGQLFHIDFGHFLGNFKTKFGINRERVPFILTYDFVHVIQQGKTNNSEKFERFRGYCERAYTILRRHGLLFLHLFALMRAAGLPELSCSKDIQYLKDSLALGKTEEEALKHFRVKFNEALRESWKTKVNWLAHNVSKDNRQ
Sequence (P27986 whole entry partner): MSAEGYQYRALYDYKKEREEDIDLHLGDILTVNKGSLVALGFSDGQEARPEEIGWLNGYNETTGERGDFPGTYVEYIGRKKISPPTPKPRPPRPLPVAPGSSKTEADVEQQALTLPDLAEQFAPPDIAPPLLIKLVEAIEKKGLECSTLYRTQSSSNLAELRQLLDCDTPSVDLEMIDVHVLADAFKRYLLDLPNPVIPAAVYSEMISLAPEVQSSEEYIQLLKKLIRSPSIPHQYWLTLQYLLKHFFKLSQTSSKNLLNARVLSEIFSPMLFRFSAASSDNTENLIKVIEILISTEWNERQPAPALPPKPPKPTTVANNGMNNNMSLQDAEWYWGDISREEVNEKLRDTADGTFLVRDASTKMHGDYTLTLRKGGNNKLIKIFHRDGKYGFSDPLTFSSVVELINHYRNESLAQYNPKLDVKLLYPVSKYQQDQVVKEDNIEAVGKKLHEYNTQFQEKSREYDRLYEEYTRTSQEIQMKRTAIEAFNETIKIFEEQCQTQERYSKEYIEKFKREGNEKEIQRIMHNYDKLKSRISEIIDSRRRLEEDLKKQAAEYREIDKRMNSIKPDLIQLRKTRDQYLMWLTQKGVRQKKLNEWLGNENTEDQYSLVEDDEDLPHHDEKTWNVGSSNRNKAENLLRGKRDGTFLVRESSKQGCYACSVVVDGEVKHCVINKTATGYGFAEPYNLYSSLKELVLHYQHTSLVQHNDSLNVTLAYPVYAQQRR
Test: PI3K isoform inhibition assay (fluorescence polarization), p110 delta
Settings: Ki apparent, Morrison equation; 25 μM ATP, 10 μM PIP2
ENDPOINT_NAME: pKi
In plain terms, pKi is the concentration in mol/L turned into minus its base-10 logarithm.

| INPUT_SMILES | pKi |
| --- | --- |
| CO[C@@H](C)c1nc2ccccc2n1-c1nc(N2CCOCC2)c2nc(OC3CN(C(=O)C(C)C)C3)n(C)c2n1 | 9.08 |
| Cn1c(OC2CN(C3CCS(=O)(=O)CC3)C2)nc2c(N3CCOCC3)nc(-n3c(C(C)(F)F)nc4ccccc43)nc21 | 8.85 |
| Cn1c(OC2CCN(C3CCOCC3)CC2)nc2c(N3CCOCC3)nc(-c3c(F)ccc4[nH]ccc34)nc21 | 9.01 |

Would you mind telling me what pKi value was observed for `CCc1nc2ccccc2n1-c1nc(N2CCOCC2)c2nc(OC3CCN(C(=O)C(C)(C)C)CC3)n(C)c2n1` ?
9.06

====

Target: p110 alpha (Homo sapiens, UniProt P42336)
Construct: purchased Upstate Group, Millipore; Dundee, UK
Sequence (P42336 whole entry, species assumed, one chain of several): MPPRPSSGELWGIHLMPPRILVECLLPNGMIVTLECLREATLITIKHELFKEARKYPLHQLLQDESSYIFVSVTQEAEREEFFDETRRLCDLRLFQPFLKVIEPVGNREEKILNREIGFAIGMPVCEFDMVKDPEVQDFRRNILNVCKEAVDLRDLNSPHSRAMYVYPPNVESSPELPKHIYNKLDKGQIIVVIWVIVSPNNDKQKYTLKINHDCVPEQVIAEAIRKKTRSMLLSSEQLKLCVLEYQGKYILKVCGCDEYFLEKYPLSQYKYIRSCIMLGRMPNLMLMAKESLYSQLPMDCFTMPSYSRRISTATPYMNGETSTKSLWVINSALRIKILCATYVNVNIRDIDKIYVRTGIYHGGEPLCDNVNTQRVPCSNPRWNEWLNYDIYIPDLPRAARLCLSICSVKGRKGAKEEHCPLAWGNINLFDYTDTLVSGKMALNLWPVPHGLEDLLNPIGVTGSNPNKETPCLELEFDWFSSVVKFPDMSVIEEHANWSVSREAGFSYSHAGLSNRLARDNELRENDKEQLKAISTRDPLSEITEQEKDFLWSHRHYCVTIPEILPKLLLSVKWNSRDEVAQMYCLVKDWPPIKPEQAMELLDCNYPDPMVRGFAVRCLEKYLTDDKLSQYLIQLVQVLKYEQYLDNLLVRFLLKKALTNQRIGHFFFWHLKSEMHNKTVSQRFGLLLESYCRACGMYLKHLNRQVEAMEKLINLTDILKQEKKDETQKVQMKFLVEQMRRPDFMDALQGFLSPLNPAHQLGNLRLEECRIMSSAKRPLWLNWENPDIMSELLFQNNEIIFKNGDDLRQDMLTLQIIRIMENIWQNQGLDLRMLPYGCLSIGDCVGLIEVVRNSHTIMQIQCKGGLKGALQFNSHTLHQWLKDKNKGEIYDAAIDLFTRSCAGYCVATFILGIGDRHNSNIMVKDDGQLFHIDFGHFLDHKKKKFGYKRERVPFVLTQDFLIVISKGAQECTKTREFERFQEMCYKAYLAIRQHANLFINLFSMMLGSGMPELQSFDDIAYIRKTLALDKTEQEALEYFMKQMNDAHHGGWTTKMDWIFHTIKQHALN
Assay: PI3K isoform inhibition assay (fluorescence polarization), p110 alpha
Assay type: biochemical
Conditions: delta/alpha selectivity ratio
As shown below, each of these molecules has a reported Ki p110 alpha/ Ki p110 delta value.
Enter a number only.

Use the examples below as a reference point.
| MOLECULE | Ki p110 alpha/ Ki p110 delta |
| --- | --- |
| CC(C)c1nc2ccccc2n1-c1nc(N2CCOCC2)c2nc(OC3CN(C4COC4)C3)n(C)c2n1 [Compound 111] | 102 |
| Cc1nc2ccccc2n1-c1nc(N2CCOCC2)c2nc(OC3CCN(C4CCOCC4)CC3)n(C)c2n1 [Compound 127] | 105 |
| CCc1nc2ccccc2n1-c1nc(N2CCOCC2)c2nc(OC3CN(C(=O)[C@@H](C)OC)C3)n(C)c2n1 [Compound 117] | 132 |

Could you now look at the following molecule, please?
Tell me reported Ki p110 alpha/ Ki p110 delta for CCc1nc2ccccc2n1-c1nc(N2CCOCC2)c2nc(OC3CCN(C(=O)C4CC4)CC3)n(C)c2n1 [Compound 110] , tested with p110 alpha (Homo sapiens, UniProt P42336).
98

====

Target: p110 delta (Homo sapiens, UniProt O00329)
Construct: Dundee, UK
Assay: PI3K isoform inhibition assay (fluorescence polarization), p110 delta
Settings: Ki apparent, Morrison equation; 25 μM ATP, 10 μM PIP2
ENDPOINT_NAME: pKi
Hey, just a heads up that pKi is the negative log base 10 of the concentration in molar.

Example results:
| INPUT_SMILES | pKi |
| --- | --- |
| CCc1nc2ccccc2n1-c1nc(N2CCOCC2)c2nc(OC3CCN(C(=O)C(C)(C)O)CC3)n(C)c2n1 | 8.85 |
| CCc1nc2ccccc2n1-c1nc(N2CCOCC2)c2nc(OC3CN(C(=O)C4(F)CC4)C3)n(C)c2n1 | 8.35 |
| CCc1nc2ccccc2n1-c1nc(N2CCOCC2)c2nc(OC3CN(C(=O)C(C)(C)F)C3)n(C)c2n1 | 8.63 |

Fill in the blank: the reported pKi of `CO[C@H](C)c1nc2ccccc2n1-c1nc(N2CCOCC2)c2nc(OC3CN(C(=O)C(C)C)C3)n(C)c2n1` is ____.
8.82

====

Biological target: p110 delta (Homo sapiens, UniProt O00329)
Construct: Dundee, UK
Experiment: PI3K isoform inhibition assay (fluorescence polarization), p110 delta
Conditions: Ki apparent, Morrison equation; 25 μM ATP, 10 μM PIP2
ENDPOINT_NAME: pKi
As a rule, pKi stands for the negative log10 of the concentration, concentration in M.

Example cases with answers are listed next.
| COMPOUND | pKi |
| --- | --- |
| CCc1nc2ccccc2n1-c1nc(N2CCOCC2)c2nc(OC3CN(C(=O)[C@H](C)O)C3)n(C)c2n1 | 8.85 |
| CO[C@H](C)c1nc2ccccc2n1-c1nc(N2CCOCC2)c2nc(OC3CN(C4CCS(=O)(=O)CC4)C3)n(C)c2n1 | 8.79 |
| CCc1nc2ccccc2n1-c1nc(N2CCOCC2)c2nc(OC3CN(S(=O)(=O)C4CC4)C3)n(C)c2n1 | 9.27 |
| CCc1nc2ccccc2n1-c1nc(N2CCOCC2)c2nc(OC3CN(C(=O)C4(C)CC4)C3)n(C)c2n1 | 9.08 |
| CCc1nc2ccccc2n1-c1nc(N2CCOCC2)c2nc(OC3CN(C(=O)C4CC4)C3C)n(C)c2n1 (stereo not drawn) | 9.47 |
| CCc1nc2ccccc2n1-c1nc(N2CCOCC2)c2nc(OC3CCN(C(=O)C(C)C)CC3)n(C)c2n1 | 9.31 |
| CCc1nc2ccccc2n1-c1nc(N2CCOCC2)c2nc(OC3CN(C(=O)C(C)(C)N)C3)n(C)c2n1 | 8.89 |
| CCc1nc2ccccc2n1-c1nc(N2CCOCC2)c2nc(OC3CN(C4CCOCC4)C3)n(C)c2n1 | 8.89 |
| CCc1nc2ccccc2n1-c1nc(N2CCOCC2)c2nc(OC3CN(C(=O)C4(C#N)CC4)C3)n(C)c2n1 | 8.54 |
| CCc1nc2ccccc2n1-c1nc(N2CCOCC2)c2nc(OC3CN(C(=O)[C@H](C)OC)C3)n(C)c2n1 | 8.91 |

Query compound follows.
Using the record for `CC(C)c1nc2ccccc2n1-c1nc(N2CCOCC2)c2nc(OC3CN(C4COC4)C3)n(C)c2n1` , report its pKi.
8.79

====

Biological target: p110 delta (Homo sapiens, UniProt O00329)
Construct: Dundee, UK
Assay: PI3K isoform inhibition assay (fluorescence polarization), p110 delta
Conditions: Ki apparent, Morrison equation; 25 μM ATP, 10 μM PIP2
T if Ki is below 0.5 nM. F if not; exact matches included in F.

The examples below pair each entry with its known result.
| COMPOUND | CLASS_LABEL |
| --- | --- |
| CCc1nc2ccccc2n1-c1nc(N2CCOCC2)c2nc(OC3CN(C(=O)C(C)C)C3)[nH]c2n1 | F |
| CCc1nc2ccccc2n1-c1nc(N2CCOCC2)c2nc(OC3CCN(C(=O)C4CC4)CC3)n(C)c2n1 | F |
| CCc1nc2ccccc2n1-c1nc(N2CCOCC2)c2nc(OC3CCN(C(C)=O)CC3)n(C)c2n1 | F |
| CC(C)c1nc2ccccc2n1-c1nc(N2CCOCC2)c2nc(OC3CN(C4CCOCC4)C3)n(C)c2n1 | F |
| CCc1nc2ccccc2n1-c1nc(N2CCOCC2)c2nc(OC3CN(C(=O)[C@H]4CC45CCC5)C3)n(C)c2n1 | F |

Identify whether the compound `CCc1nc2ccccc2n1-c1nc(N2CCOCC2)c2nc(OC3CN(C4CCS(=O)(=O)CC4)C3)n(C)c2n1` records Ki below 0.5 nM.
F

Please answer likewise for `CCc1nc2ccccc2n1-c1nc(N2CCOCC2)c2nc(OC3CN(C(=O)C4(COC)CC4)C3)n(C)c2n1`
F

`CCc1nc2ccccc2n1-c1nc(N2CCOCC2)c2nc(OC3CCN(C4CCOCC4)CC3)n(C)c2n1` , same question.
F

Would you mind doing `CCc1nc2ccccc2n1-c1nc(N2CCOCC2)c2nc(OC3CCN(C4CCS(=O)(=O)CC4)CC3)n(C)c2n1` as well?
T

Same for `CCc1nc2ccccc2n1-c1nc(N2CCOCC2)c2nc(OC3CN(C(=O)C4(C(F)(F)F)CC4)C3)n(C)c2n1`
T

Same question for CCc1nc2ccccc2n1-c1nc(N2CCOCC2)c2nc(OC3CN(C(=O)C4C[C@@H]4F)C3)n(C)c2n1 (some centres unmarked) please.
T

Also, `CC(C)C(=O)N1CC(Oc2nc3c(N4CCOCC4)nc(-n4c(C(C)C)nc5ccccc54)nc3n2C)C1` please.
T

And what about the compound `CN(C)c1nc2ccccc2n1-c1nc(N2CCOCC2)c2nc(OC3CN(C4CCS(=O)(=O)CC4)C3)n(C)c2n1` ?
F
